# target or test system: mAChR M4 (Homo sapiens)
# Construct: expressed in transfected cells; host or cells: CHO-K1 cells, also stably transfected with the chimeric G-protein Gqi5
# test name: mAChR M4 cell-based functional assay (calcium mobilization, potentiation of EC20 acetylcholine response)
# experimental setup: % ACh maximum at 30 μM
measure name: Emax at 30 µM (%)

Cc1nnc2sc(C(=O)NC3CC3)cc2c1C: 72
COc1ccc(C2CC2NC(=O)c2sc3nnc(C)c(C)c3c2C)cc1 (stereo not drawn): 51
COc1ccc(CNC(=O)c2cc3c(C)c(C)nnc3s2)cc1F: 68

(A) Cc1nnc2sc(C(=O)NC3CN(c4ccc(C(F)(F)F)nc4)C3)cc2c1C
(B) Cc1nnc2sc(C(=O)NC3COC3)cc2c1C
(C) Cc1nnc2sc(C(=O)NC3CC(F)(F)C3)c(C3CC3)c2c1C
Hey, quick one: sort these by Emax at 30 µM, largest value first please. Would you mind listing the labels in the order requested?
B, A, C

====

# target or test system: mAChR M4 (Homo sapiens)
# Construct: expressed in transfected cells; host or cells: CHO-K1 cells, also stably transfected with the chimeric G-protein Gqi5
# test name: mAChR M4 cell-based functional assay (calcium mobilization, potentiation of EC20 acetylcholine response)
# experimental setup: % ACh maximum at 30 μM
measure name: Emax at 30 µM (%)

Known Emax at 30 µM results, listed for orientation:
COc1ccc(CNC(=O)c2sc3nnc(C)c(C)c3c2C2CC2)cc1F: 38
COc1ccc(CNC(=O)c2sc3nnc(C)c(C)c3c2Br)cc1: 36
Cc1nnc2sc(C(=O)NC3CC3)c(C3CC3)c2c1C: 35
Cc1nnc2sc(C(=O)NC3COC3)c(C)c2c1C: 65
Cc1nnc2sc(C(=O)NC3CC3)c(C)c2c1C: 68
COc1ccc(CNC(=O)c2sc3nnc(C)c(C)c3c2C)cc1F: 59
Cc1nnc2sc(C(=O)NC3CCC3)c(C3CC3)c2c1C: 33

(A) Cc1nnc2sc(C(=O)NC3CN(c4ccc(C(F)(F)F)nc4)C3)c(C3CC3)c2c1C
(B) Cc1nnc2sc(C(=O)NC3COC3)c(C3CC3)c2c1C
(C) Cc1nnc2sc(C(=O)NC3CN(c4cccnc4)C3)c(C)c2c1C
Given 3 molecules, produce a descending ranking by Emax at 30 µM. Could you list the labels in the order requested?
C, B, A

====

# target or test system: mAChR M4 (Homo sapiens, UniProt P08173)
# Construct: expressed in transfected cells; host or cells: CHO-K1 cells, also stably transfected with the chimeric G-protein Gqi5
# Sequence (P08173 whole entry): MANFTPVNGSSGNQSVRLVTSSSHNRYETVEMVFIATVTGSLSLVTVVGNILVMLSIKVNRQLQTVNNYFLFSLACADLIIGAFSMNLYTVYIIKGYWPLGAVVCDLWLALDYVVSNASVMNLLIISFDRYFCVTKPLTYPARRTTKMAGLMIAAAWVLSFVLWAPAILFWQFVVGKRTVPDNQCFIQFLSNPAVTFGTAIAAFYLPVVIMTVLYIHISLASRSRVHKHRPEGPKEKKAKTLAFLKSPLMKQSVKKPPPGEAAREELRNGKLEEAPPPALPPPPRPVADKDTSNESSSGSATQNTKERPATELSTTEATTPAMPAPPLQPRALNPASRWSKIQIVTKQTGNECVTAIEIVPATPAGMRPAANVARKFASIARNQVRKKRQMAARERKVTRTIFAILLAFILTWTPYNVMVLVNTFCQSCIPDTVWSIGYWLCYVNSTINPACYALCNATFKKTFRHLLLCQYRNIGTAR
# test name: mAChR M4 cell-based functional assay (calcium mobilization, potentiation of EC20 acetylcholine response)
# experimental setup: CHO-K1 cells expressing mAChR M4 (Gqi5), calcium flux, increase in EC20 acetylcholine response; >10,000 estimated where the curve has no plateau
# Experimental: Chinese hamster ovary (CHO-K1) cells stably expressing rat (r)M1 were purchased from the American Type Culture Collection and cultured according to their indicated protocol. […] Calcium flux was measured using the Functional Drug Screening System (FDSS) 6000 (Hamamatsu Corporation, Tokyo, Japan) as an increase in the fluorescent static ratio. […] Agonist activity was analyzed as a concentration-dependent increase in calcium mobilization upon compound addition. […]
measure name: EC50 (µM)

Check out these entries, answers already filled in.
COc1ccc(CNC(=O)c2sc3nnc(C)c(C)c3c2C2CC2)cc1F: 4.4
Cc1nnc2sc(C(=O)NC3CCC3)c(C3CC3)c2c1C: 5.2
COc1ccc(C2CC2NC(=O)c2sc3nnc(C)c(C)c3c2C)cc1 (stereo not shown): 2.1

(P) COc1ccc(CNC(=O)c2cc3c(C)c(C)nnc3s2)cc1F
(Q) Cc1nnc2sc(C(=O)NC3CC3)cc2c1C
(R) COc1ccc(CNC(=O)c2sc3nnc(C)c(C)c3c2C)cc1F
(S) Cc1nnc2sc(C(=O)NC3CN(c4cccnc4)C3)c(C)c2c1C
Your job: order these 4 records by EC50, ascending. Please list the labels according to the requested order.
S, P, R, Q
(S: 0.91 µM, P: 1.4 µM, R: 2 µM, Q: 4.3 µM)

(a) COc1ccc(CNC(=O)c2sc3nnc(C)c(C)c3c2Br)cc1
(b) Cc1nnc2sc(C(=O)NC3CN(c4ccc(C(F)(F)F)nc4)C3)cc2c1C
Among a and b , which shows a numerically higher EC50 result? Answer = label.
a
